src = ChEMBL document CHEMBL1135917

Recorded IC50 by entry
- Study Target: Somatostatin receptor type 4 (Homo sapiens, UniProt P31391)
- Sequence (P31391 whole entry): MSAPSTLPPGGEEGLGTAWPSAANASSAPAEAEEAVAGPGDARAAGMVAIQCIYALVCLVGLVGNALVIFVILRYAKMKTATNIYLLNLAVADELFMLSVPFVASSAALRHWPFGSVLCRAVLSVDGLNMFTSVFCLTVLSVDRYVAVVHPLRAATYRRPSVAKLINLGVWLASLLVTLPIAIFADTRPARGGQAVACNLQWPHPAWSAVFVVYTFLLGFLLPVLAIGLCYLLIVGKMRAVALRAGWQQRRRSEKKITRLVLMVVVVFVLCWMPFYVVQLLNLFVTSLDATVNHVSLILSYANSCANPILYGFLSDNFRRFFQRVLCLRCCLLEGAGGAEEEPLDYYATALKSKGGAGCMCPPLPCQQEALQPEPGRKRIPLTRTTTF
- Experimental Protocol: Binding affinity of human Somatostatin receptor type 4 (hsst4) by the displacement of [125I]- Tyr11 somatostatin-14 in CHO-K1 cells
- Assay type: cell-based
*1 amine or outer side, *2 acyl side, *3 side chain or, on linkers, in order; H or OH if unused. Where a SMILES comes first, the peptide text is derived from it. Bridges are numbered along the chain shown (N, C = ends). [ ]: non-standard residue; d: D form. N(2-mercaptoethyl)Gly = O=C(CN(CCS[*:3])[*:1])[*:2]
Reported Metric: IC50 (nM)

* C[C@@H](O)[C@@H]1NC(=O)[C@H](CCCCN)NC(=O)[C@@H](Cc2c[nH]c3ccccc23)NC(=O)[C@H](Cc2c[nH]c3ccccc23)NC(=O)[C@H](Cc2ccccc2)NC(=O)CNCCSSCCN(CC(N)=O)C(=O)[C@H](Cc2ccccc2)NC1=O | 49.5
* C[C@@H](O)[C@@H]1NC(=O)[C@H](CCCCN)NC(=O)[C@@H](Cc2c[nH]c3ccccc23)NC(=O)[C@H](Cc2c[nH]c3ccccc23)NC(=O)[C@H](Cc2ccccc2)NC(=O)CCCNC(=O)CCCN(CC(N)=O)C(=O)[C@H](Cc2ccccc2)NC1=O | 7
* C[C@@H](O)[C@@H]1NC(=O)[C@H](CCCCN)NC(=O)[C@@H](Cc2c[nH]c3ccccc23)NC(=O)[C@H](Cc2c[nH]c3ccccc23)NC(=O)[C@H](Cc2ccccc2)NC(=O)[C@@H](N)CSSCCN(CC(N)=O)C(=O)[C@H](Cc2ccccc2)NC1=O (H-CFW[dW]KTF[N(2-mercaptoethyl)Gly]-NH2; disulfide 1-8) | 41.1

* * *

- Study Target: UniProt P32745
- Sequence (P32745 whole entry): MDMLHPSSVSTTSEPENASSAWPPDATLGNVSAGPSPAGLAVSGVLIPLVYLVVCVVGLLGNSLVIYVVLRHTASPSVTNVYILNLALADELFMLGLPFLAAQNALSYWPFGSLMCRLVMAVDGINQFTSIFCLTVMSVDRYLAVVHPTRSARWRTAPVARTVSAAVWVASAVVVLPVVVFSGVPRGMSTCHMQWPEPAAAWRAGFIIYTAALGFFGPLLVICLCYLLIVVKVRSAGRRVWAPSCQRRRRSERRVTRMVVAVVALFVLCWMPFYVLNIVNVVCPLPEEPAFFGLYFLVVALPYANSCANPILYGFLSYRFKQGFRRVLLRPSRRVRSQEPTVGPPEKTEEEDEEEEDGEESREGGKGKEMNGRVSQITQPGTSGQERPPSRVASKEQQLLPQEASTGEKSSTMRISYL
- Experimental Protocol: Binding affinity of human Somatostatin receptor type 3 (hsst3) by the displacement of [125I]- Tyr11 somatostatin-14 in CHO-K1 cells
- Assay type: cell-based
pIC50: −log10 of the molar value. *1 amine or outer side, *2 acyl side, *3 side chain or, on linkers, in order; H or OH if unused. Where a SMILES comes first, the peptide text is derived from it. Bridges are numbered along the chain shown (N, C = ends). [ ]: non-standard residue; d: D form. N(2-mercaptoethyl)Gly = O=C(CN(CCS[*:3])[*:1])[*:2]
Reported Metric: pIC50

• C[C@@H](O)[C@@H]1NC(=O)[C@H](CCCCN)NC(=O)[C@@H](Cc2c[nH]c3ccccc23)NC(=O)[C@H](Cc2c[nH]c3ccccc23)NC(=O)[C@H](Cc2ccccc2)NC(=O)CSSCCN(CC(N)=O)C(=O)[C@H](Cc2ccccc2)NC1=O = 7.81
• C[C@@H](O)[C@@H]1NC(=O)[C@H](CCCCN)NC(=O)[C@@H](Cc2c[nH]c3ccccc23)NC(=O)[C@H](Cc2c[nH]c3ccccc23)NC(=O)[C@H](Cc2ccccc2)NC(=O)[C@@H](N)CSSCCN(CC(N)=O)C(=O)[C@H](Cc2ccccc2)NC1=O (H-CFW[dW]KTF[N(2-mercaptoethyl)Gly]-NH2; disulfide 1-8) = 7.39

* * *

- Study Target: Somatostatin receptor type 2 (Homo sapiens)
- Sequence (P30874 whole entry): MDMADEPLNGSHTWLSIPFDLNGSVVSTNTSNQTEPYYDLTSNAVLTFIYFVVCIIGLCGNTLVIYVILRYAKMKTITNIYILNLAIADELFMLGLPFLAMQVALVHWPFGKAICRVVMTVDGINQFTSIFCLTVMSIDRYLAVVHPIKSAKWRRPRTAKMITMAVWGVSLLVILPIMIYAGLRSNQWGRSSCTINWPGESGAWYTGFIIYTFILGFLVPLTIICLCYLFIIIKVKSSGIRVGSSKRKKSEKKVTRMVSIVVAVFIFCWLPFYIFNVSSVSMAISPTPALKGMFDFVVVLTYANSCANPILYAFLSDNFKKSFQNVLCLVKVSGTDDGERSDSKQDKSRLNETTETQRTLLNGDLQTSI
- Experimental Protocol: Binding affinity of human Somatostatin receptor type 2 (hsst2) by the displacement of [125I]- Tyr11 somatostatin-14 in CHO-K1 cells
- Assay type: cell-based
Recorded IC50 by entry
Reported Metric: IC50 (nM)

- C[C@@H](O)[C@@H]1NC(=O)[C@H](CCCCN)NC(=O)[C@@H](Cc2c[nH]c3ccccc23)NC(=O)[C@H](Cc2c[nH]c3ccccc23)NC(=O)[C@H](Cc2ccccc2)NC(=O)CNCCSSCCN(CC(N)=O)C(=O)[C@H](Cc2ccccc2)NC1=O: 4.1
- C[C@@H](O)[C@@H]1NC(=O)[C@H](CCCCN)NC(=O)[C@@H](Cc2c[nH]c3ccccc23)NC(=O)[C@H](Cc2c[nH]c3ccccc23)NC(=O)[C@H](Cc2ccccc2)NC(=O)CCCNC(=O)CCCN(CC(N)=O)C(=O)[C@H](Cc2ccccc2)NC1=O: 3
